target-system: human cloned somatostatin receptor 1 (human) (UniProt P30872)
Sequence (P30872 whole entry): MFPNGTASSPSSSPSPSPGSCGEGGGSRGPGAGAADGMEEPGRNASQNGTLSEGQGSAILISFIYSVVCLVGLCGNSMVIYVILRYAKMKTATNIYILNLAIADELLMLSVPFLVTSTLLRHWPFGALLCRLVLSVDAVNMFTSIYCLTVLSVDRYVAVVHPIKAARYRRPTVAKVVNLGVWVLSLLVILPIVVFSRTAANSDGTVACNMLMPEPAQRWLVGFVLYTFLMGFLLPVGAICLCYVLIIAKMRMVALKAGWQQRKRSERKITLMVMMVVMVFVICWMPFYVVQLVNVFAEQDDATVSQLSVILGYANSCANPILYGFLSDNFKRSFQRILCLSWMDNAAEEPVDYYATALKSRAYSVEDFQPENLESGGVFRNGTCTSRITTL
method: 125I-Tyr11-SRIF-14 displacement
*1 amine or outer side, *2 acyl side, *3 side chain or, on linkers, in order; H or OH if unused. Bridges are numbered along the chain shown (N, C = ends). Where no end group is shown, it is not given here. [ ]: non-standard residue; d: D form. The star is where a group is joined. DOTA = O=C(O)CN1CCN(CC(=O)O)CCN(CC(=O)*)CCN(CC(=O)O)CC1; N(2-mercaptoethyl)Gly = O=C(CN(CCS[*:3])[*:1])[*:2]; GABA = NCCCC(=O)O
measurement-name: % displacement at 1 nM (%)
Unit % implied. Number only.

Would you please look over these solved cases?
{DOTA}-[dF]KCF[dW]KTF[N(2-mercaptoethyl)Gly]-NH2 (disulfide 3-9; SMILES C[C@@H](O)[C@@H]1NC(=O)[C@H](CCCCN)NC(=O)[C@@H](Cc2c[nH]c3ccccc23)NC(=O)[C@H](Cc2ccccc2)NC(=O)[C@@H](NC(=O)[C@H](CCCCN)NC(=O)[C@@H](Cc2ccccc2)NC(=O)CN2CCN(CC(=O)O)CCN(CC(=O)O)CCN(CC(=O)O)CC2)CSSCCN(CC(N)=O)C(=O)[C@H](Cc2ccccc2)NC1=O) [SEQ ID NO: 9]: 4
{DOTA-GABA}-[dF]RCF[dW]KTF[N(2-mercaptoethyl)Gly]-NH2 (disulfide 3-9; also: Ga complex of DOTA) [SEQ ID NO: 8]: 0

// next item, % displacement at 1 nM requested
The reported % displacement at 1 nM of the binder K[dF]RCF[dW]KTF[N(2-mercaptoethyl)Gly]-NH2 (disulfide 4-10; not fully specified (residue 1, N-terminus); printed as (DOTA)2-Lys1-D-Phe2-Arg3-Cys4-Phe5-D-Trp6-Lys7-Thr8-Phe9-NTEG10-NH2 (cyclo 3-9); also: (DOTA)2 on Lys1, sites not given here) [SEQ ID NO: 16] was 0
